Where these numbers come from: ChEMBL document CHEMBL1144107

# TARGET UNDER TEST: Polyunsaturated fatty acid 5-lipoxygenase (Rattus norvegicus)
# Sequence (whole entry): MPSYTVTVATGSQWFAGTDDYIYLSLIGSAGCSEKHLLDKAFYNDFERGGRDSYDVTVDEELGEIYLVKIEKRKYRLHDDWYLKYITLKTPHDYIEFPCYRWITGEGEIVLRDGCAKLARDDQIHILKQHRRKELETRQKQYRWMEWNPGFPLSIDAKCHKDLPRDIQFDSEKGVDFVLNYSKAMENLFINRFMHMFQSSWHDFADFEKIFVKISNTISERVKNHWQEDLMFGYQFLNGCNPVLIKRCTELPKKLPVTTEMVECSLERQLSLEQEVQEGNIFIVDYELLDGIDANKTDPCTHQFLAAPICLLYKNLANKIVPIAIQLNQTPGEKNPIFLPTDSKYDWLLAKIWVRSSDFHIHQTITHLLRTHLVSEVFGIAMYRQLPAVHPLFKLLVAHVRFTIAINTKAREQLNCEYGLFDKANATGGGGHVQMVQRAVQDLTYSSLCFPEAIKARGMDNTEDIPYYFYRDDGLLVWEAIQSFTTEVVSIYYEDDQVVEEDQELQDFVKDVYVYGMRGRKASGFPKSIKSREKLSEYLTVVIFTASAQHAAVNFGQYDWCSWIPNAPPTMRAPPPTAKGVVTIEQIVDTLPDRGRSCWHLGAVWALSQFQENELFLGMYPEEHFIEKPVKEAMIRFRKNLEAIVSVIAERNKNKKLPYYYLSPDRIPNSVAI
# ASSAY OVERVIEW: Inhibition of 5-lipoxygenase in Wistar rat peritoneal leukocytes at 50 ug/mL
# Format: cell-based
REPORTED METRIC: inhibition (%)
Numeric answer only, unit % assumed.

Q: Would you kindly share the measured inhibition for CCC(OC)(c1cccc(OCc2ccc3ccccc3c2)c1)c1nccs1 (stereo unspecified) ?
Result: 100

Q: Would you kindly share the measured inhibition for `C[C@@H]1O[C@@H](O[C@@H]2[C@@H](O)[C@H](OCCc3ccc(O)c(O)c3)O[C@H](CO)[C@H]2OC(=O)/C=C/c2ccc(O)c(O)c2)[C@H](O)[C@H](O)[C@H]1O` ?
Result: 0

Q: Would you kindly share the measured inhibition for `CC(/C=C/C=C(\C)C(=O)O)=C\C=C\C=C(C)\C=C\C=C(/C)C(=O)O[C@H]1O[C@H](CO[C@@H]2O[C@H](CO)[C@@H](O)[C@H](O)[C@H]2O)[C@@H](O)[C@H](O)[C@H]1O` ?
Result: 0

Q: Would you kindly share the measured inhibition for COC(CO[C@@H]1O[C@H](CO)[C@@H](OC(=O)/C=C/c2ccc(O)c(O)c2)[C@H](O[C@@H]2O[C@@H](C)[C@H](O)[C@@H](O)[C@H]2O)[C@H]1O)c1ccc(O)c(O)c1 (stereo partly specified) ?
Result: 0

Q: Would you kindly share the measured inhibition for `O=C(/C=C/c1ccc(O)c(O)c1)O[C@H]1[C@H](O)[C@@H](O)[C@H](OCCc2ccc(O)c(O)c2)O[C@@H]1CO` ?
Result: 0

Q: Would you kindly share the measured inhibition for C[C@H]1O[C@H](O[C@@H]2[C@@H](O)[C@H](OCCc3ccc(O)c(O)c3)O[C@H](CO[C@H]3OCC(O)(CO)[C@@H]3O)[C@H]2OC(=O)/C=C/c2ccc(O)c(O)c2)[C@@H](O)[C@@H](O)[C@@H]1O (stereo partly specified) ?
Result: 0
